# Assay Protocol: protein stability index of a GFP-peptide fusion (GPS, HEK-293T) (PSI 1-6); higher = more stable;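 further: 24-mer peptide tiles fused after GFP, lentivirally expressed, FACS-sorted into six equal bins by GFP/DsRed ratio, decoded by Illumina sequencing, PSI is the read-weighted mean bin number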
# Conditions: treatment: MLN4924 1 uM, 8 h; c terminus: a fixed tail appended
Measured Endpoint: protein stability index

• IPVLYCMVFIAGILLNGVSGWIFF [P2RY14] = 2.9
• LLEATCPFGENAEFPADISSITEA [NFE2L1] = 4.65
• TKEKKHQCDHCERCFYTRKDVRRH [PLAGL1] = 4.2
• KDYNNLWIIKKHNTNSDPLDPSFP [POMT2] = 3.29
• NDIFQAANPYWTSRGSSVSMSGGR [TRIM63] = 3.63
• LQQIADFMTTNVPNVYPAAPQGGM [ADD1] = 3.29
• ICEQAEYHMFQREKVEVQLPELFH [KCNAB2] = 3.06
• PPPPPGLPSDGDHQVPTTAGNKAA [WASL] = 5.43
• VYRFVCDLQNLLGFTPEELHAILG [ETS2] = 2.19
• ANIEEVLQRGEALSALDSKANNLS [SEC22B] = 4.89
• RSSSRINIPERASGPEGNLNQIVT [FAM104B] = 4.36
• GNNLLVFGGTGIPFGESNGNGVHV [KLHDC10] = 2.71
• RDEESFFGERRIPRGRRISVICRS [ALKBH7] = 3.65
• LPFLAHALYVQAPTVTIEGFLQAL [TRIP13] = 2.76
• ATSRTDREIKVTLVFEHVDQDLRT [CDK4] = 2.26
• SRVAHIERTRKPYNNDIDYYAKRN [GALNT9] = 3.91
• ADACDIDEIEEVPTTSHRLSRHDK [NETO1] = 5.45
• HSGTKRDPKEDVFQQNHLFWLQNS [PHTF1] = 3.33
• ILLNGVSGWIFFYVPSSESFIIYL [P2RY14] = 2.84
• GREKPGPLDFEAYSAAALQEAMKR [FCHO1] = 4.26
• MADSGLREPQEDSQKDLENDPSVN [TOR1AIP2] = 5.57
• SLDEFRQTWKLFSSHMNIDITDDC [PPEF2] = 2.75
• NSIAHYRQVNIRTANCTTANQNCV [KCNA1] = 3.19
• AELEQHLEQEQEFQVNKLMKKIKK [CCDC6] = 5.13
• SSETPIEGKNMSFVNDLTVTQDGR [APMAP] = 4.87
• LKSMDKNGTMTIDWNEWRDYHLLH [SLC25A25] = 2.19
• QELPPYNGFGLVEDSAQNCFALIP [EFHC1] = 3.4
• YMYYFQYLSKTYCVDATRETNRLG [KMT5A] = 2.81
• NLLLQPTTNPHTSASHRPCVNGDV [SMG5] = 3.54
• EGFLFVFGGQDENKQTLSSGEKYD [GAN] = 3.73
• TWRDPQDEVPGSQGSQASQAPPVP [NR2F2] = 5.16
• VIESFTELSRIVLMRHGMEKIWRP [RAB40C] = 2.6
• YLNFIRGVVDSEDLPLNISREMLQ [HSP90AB1] = 3.09
• QAKEELARMLREYQELMSLKLALD [KRT71] = 2.77
• QLPGLLNFGEFKCSDSDKKCHLWT [CLCN6] = 2.45
• ASLGDVQSGATISMPCSTDKENGE [SASS6] = 5.62
• AVYLMTFLIVTVAWAAHTRLFQVV [TMEM175] = 3.18
• EADVNGLRRVLDELTLARTDLEMQ [KRT16] = 4.07
• MQRGARLPAEVAGLSQVLLRGGGQ [POMT2] = 3.64
• DLPEVESLPRDRVLGFLIENFKGL [VPS39] = 3.19
• TEQSSASRLMRRHKRRRRKQKVSR [DVL3] = 5.16
• KVTGVEYHNAGTQTVPKRIPERLS [IQUB] = 4.23
• LSPKKTWEGFIGGFFSTVVFGFIA [CDS1] = 2.15
• LLMIPWGSAAKLVCYFTNWAQYRQ [CHIT1] = 2.86
• IEERKQGLEQFINKVAGHPLAQNE [SNX3] = 4.31
• TINPLWHIRHLGWNPDARYSEHFL [GLT8D2] = 2.32
• STFHTISPSFQLKAAALPPFPLGA [PLAGL1] = 2.64
• FFIRTSDSFDKFDFCEPSFVTGNC [PCMTD2] = 2.42
• VFPETAFIAVTSYQNHKITQLKIE [TBX5] = 2.21
• SNSSQDSLHKGAKRKGIKSSIGRL [PPFIA4] = 4.22
• ILTEPAQAQKCYRDLALVSRDGMN [INTS3] = 3.24
• EFIQEIRRQLEACQRERAFSVKFE [OAS1] = 2.27
• ELFKELSINVMKQLIGSSNLFVMQ [GMCL1] = 3.95
